Tested on: 885724-159-R-J1-PDC complex spheroid viability
experiment: Anticancer human tumor 885724-159-R-J1-PDC patient-derived pancreatic adenocarcinoma cell line growth inhibition [POLQ]
settings: second compound 0.316 µM; first compound 0.00316 µM; hits give low values
parameter measured: viability, T/C (%)

>>> value("C=CCn1c(=O)c2cnc(Nc3ccc(N4CCN(C)CC4)cc3)nc2n1-c1cccc(C(C)(C)O)n1 + Cc1cccc(N(C)C(=O)C2C(O)CCN2c2nc(C)cc(C(F)(F)F)c2C#N)c1")
98.6
>>> value("CC[C@@]1(O)C(=O)OCc2c1cc1n(c2=O)Cc2cc3c(CN(C)C)c(O)ccc3nc2-1 + Cc1cccc(N(C)C(=O)C2C(O)CCN2c2nc(C)cc(C(F)(F)F)c2C#N)c1")
103
>>> value("CC[C@@]1(O)C(=O)OCc2c1cc1n(c2=O)Cc2cc3c(CN(C)C)c(O)ccc3nc2-1 + COC1C(OC(N)=O)C(O)C(Oc2ccc3c(O)c(NC(=O)c4ccc(O)c(CC=C(C)C)c4)c(=O)oc3c2C)OC1(C)C")
94.4
>>> value("CCc1c2c(nc3ccc(O)cc13)-c1cc3c(c(=O)n1C2)COC(=O)[C@]3(O)CC + Cc1cccc(N(C)C(=O)C2C(O)CCN2c2nc(C)cc(C(F)(F)F)c2C#N)c1")
82.7
>>> value("COc1cccc(OCCCN)c1-c1cc(Nc2cnc(C#N)cn2)n[nH]1 + COC1C(OC(N)=O)C(O)C(Oc2ccc3c(O)c(NC(=O)c4ccc(O)c(CC=C(C)C)c4)c(=O)oc3c2C)OC1(C)C")
62.6

---

This section presents compounds with their documented viability, T/C values.
Tested on: 885724-159-R-J1-PDC complex spheroid viability
experiment: Anticancer human tumor 885724-159-R-J1-PDC cell line growth inhibition [POLQ];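 also: spheroids exposed to compounds for 7 days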
settings: second compound 10 µM; first compound 0.316 µM; hits give low values
parameter measured: viability, T/C

>>> value("COc1cccc(OCCCN)c1-c1cc(Nc2cnc(C#N)cn2)n[nH]1 + Cc1cccc(N(C)C(=O)C2C(O)CCN2c2nc(C)cc(C(F)(F)F)c2C#N)c1")
"48.2%"
>>> value("Nc1ccn(C2OC(CO)C(O)C2(F)F)c(=O)n1 (stereo unspecified) + Cc1cccc(N(C)C(=O)C2C(O)CCN2c2nc(C)cc(C(F)(F)F)c2C#N)c1")
"59.3%"
>>> value("O=C(Nc1ccc(O)c(NS(=O)(=O)c2ccc(F)cc2)c1)c1ccc(-c2ccccc2)cc1 + Cc1cccc(N(C)C(=O)C2C(O)CCN2c2nc(C)cc(C(F)(F)F)c2C#N)c1")
"104%"
>>> value("CC(C)n1c(=O)n(C)c2cnc3cc(F)c(-c4ccc(OCCCN5CCCCC5)nc4)cc3c21 + Nc1ccc(C#CCN(C(=O)Cc2ncc(C(F)(F)F)cc2C(F)(F)F)c2ccc(F)cc2)nn1")
"108%"
>>> value("COc1cccc2c1C(=O)c1c(O)c3c(c(O)c1C2=O)CC(O)(C(=O)CO)CC3OC1CC(N)C(O)C(C)O1 (stereo unspecified) + Cc1cccc(N(C)C(=O)C2C(O)CCN2c2nc(C)cc(C(F)(F)F)c2C#N)c1")
"22.9%"
>>> value("CC1COCCN1c1cc(-c2ccnn2C)c2ccnc(-c3ccn[nH]3)c2n1 (stereo unspecified) + COC1C(OC(N)=O)C(O)C(Oc2ccc3c(O)c(NC(=O)c4ccc(O)c(CC=C(C)C)c4)c(=O)oc3c2C)OC1(C)C")
"48.2%"

---

This section presents molecules with their documented viability, T/C values.
Tested on: 885724-159-R-J1-PDC complex spheroid viability
experiment: Anticancer human tumor 885724-159-R-J1-PDC cell line growth inhibition [POLQ];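 also: spheroids exposed to compounds for 7 days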
settings: second compound 0.0316 µM; first compound 0.1 µM; hits give low values
parameter measured: viability, T/C (%)

>>> value("CCc1c2c(nc3ccc(O)cc13)-c1cc3c(c(=O)n1C2)COC(=O)[C@]3(O)CC + Cc1cccc(N(C)C(=O)C2C(O)CCN2c2nc(C)cc(C(F)(F)F)c2C#N)c1")
52.6
>>> value("O=C(Nc1ccc(O)c(NS(=O)(=O)c2ccc(F)cc2)c1)c1ccc(-c2ccccc2)cc1 + Cc1cccc(N(C)C(=O)C2C(O)CCN2c2nc(C)cc(C(F)(F)F)c2C#N)c1")
92.4
>>> value("C#Cc1c(F)ccc2cc(O)cc(-c3ncc4c(N5CC6CCC(C5)N6)nc(OCC56CCCN5CC(F)C6)nc4c3F)c12 (stereo not given) + Nc1ccc(C#CCN(C(=O)Cc2ncc(C(F)(F)F)cc2C(F)(F)F)c2ccc(F)cc2)nn1")
92.6
>>> value("C=CC(=O)N1CCN(c2nc(=O)n(-c3c(C)ccnc3C(C)C)c3nc(-c4c(O)cccc4F)c(F)cc23)C(C)C1 (stereo not given) + Cc1cccc(N(C)C(=O)C2C(O)CCN2c2nc(C)cc(C(F)(F)F)c2C#N)c1")
90.7
>>> value("CCCS(=O)(=O)Nc1ccc(F)c(C(=O)c2c[nH]c3ncc(-c4ccc(Cl)cc4)cc23)c1F + COC1C(OC(N)=O)C(O)C(Oc2ccc3c(O)c(NC(=O)c4ccc(O)c(CC=C(C)C)c4)c(=O)oc3c2C)OC1(C)C")
114

---

Tested on: 885724-159-R-J1-PDC complex spheroid viability
experiment: Anticancer human tumor 885724-159-R-J1-PDC cell line growth inhibition [POLQ];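 also: spheroids exposed to compounds for 7 days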
settings: second compound 10 µM; first compound 0.316 µM; hits give low values
parameter measured: viability, T/C (%)

>>> value("C=CC(=O)N1CCN(c2nc(=O)n(-c3c(C)ccnc3C(C)C)c3nc(-c4c(O)cccc4F)c(F)cc23)C(C)C1 (stereo not drawn) + Cc1cccc(N(C)C(=O)C2C(O)CCN2c2nc(C)cc(C(F)(F)F)c2C#N)c1")
96.1
>>> value("CNCc1ccc(-c2[nH]c3cc(F)cc4c3c2CCNC4=O)cc1 + Nc1ccc(C#CCN(C(=O)Cc2ncc(C(F)(F)F)cc2C(F)(F)F)c2ccc(F)cc2)nn1")
98.8
>>> value("CCc1cc2c(N3CCc4c(cc(Cn5ccnc5)cc4-c4cn(C)nc4C(F)(F)F)C3=O)cc(C)nc2c(OC)n1 + Nc1ccc(C#CCN(C(=O)Cc2ncc(C(F)(F)F)cc2C(F)(F)F)c2ccc(F)cc2)nn1")
85.2

---

System: 885724-159-R-J1-PDC complex spheroid viability
experiment: Anticancer human tumor 885724-159-R-J1-PDC cell line growth inhibition [POLQ];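 also: spheroids exposed to compounds for 7 days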
settings: second compound 0.0316 µM; first compound 0.316 µM; hits give low values
parameter measured: viability, T/C (%)

>>> value("C=CC(=O)N1CCN(c2nc(=O)n(-c3c(C)ccnc3C(C)C)c3nc(-c4c(O)cccc4F)c(F)cc23)C(C)C1 (stereo not given) + Nc1ccc(C#CCN(C(=O)Cc2ncc(C(F)(F)F)cc2C(F)(F)F)c2ccc(F)cc2)nn1")
101
>>> value("COc1ccc([C@@H](O)c2cc(-c3ncnc4cc(N5CCOCC5)ccc34)c(F)cc2Cl)nn1 + Cc1cccc(N(C)C(=O)C2C(O)CCN2c2nc(C)cc(C(F)(F)F)c2C#N)c1")
88.6
>>> value("CCCS(=O)(=O)Nc1ccc(F)c(C(=O)c2c[nH]c3ncc(-c4ccc(Cl)cc4)cc23)c1F + Nc1ccc(C#CCN(C(=O)Cc2ncc(C(F)(F)F)cc2C(F)(F)F)c2ccc(F)cc2)nn1")
115
>>> value("CCc1cc2c(N3CCc4c(cc(Cn5ccnc5)cc4-c4cn(C)nc4C(F)(F)F)C3=O)cc(C)nc2c(OC)n1 + COC1C(OC(N)=O)C(O)C(Oc2ccc3c(O)c(NC(=O)c4ccc(O)c(CC=C(C)C)c4)c(=O)oc3c2C)OC1(C)C")
75.3
>>> value("COc1ccc([C@@H](O)c2cc(-c3ncnc4cc(N5CCOCC5)ccc34)c(F)cc2Cl)nn1 + COC1C(OC(N)=O)C(O)C(Oc2ccc3c(O)c(NC(=O)c4ccc(O)c(CC=C(C)C)c4)c(=O)oc3c2C)OC1(C)C")
76.3

---

Test system: 885724-159-R-J1-PDC complex spheroid viability
experiment: Anticancer human tumor 885724-159-R-J1-PDC cell line growth inhibition [POLQ];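 also: spheroids exposed to compounds for 7 days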
settings: second compound 0.1 µM; first compound 0.00316 µM; hits give low values
Procedure: Multicellular complex tumor spheroid response to Polymerase (POL) inhibitors (novobiocin, ART-558, RP6685) in combination with a variety of drugs and investigational agents in selected tumor cell lines The POL inhibitors (novobiocin, ART-558, and RP6685) were evaluated both individually and in combination with standard of care and investigational anticancer small molecules within a complex spheroid model of solid tumors. . […]
parameter measured: viability, T/C (%)

>>> value("CC[C@@]1(O)C(=O)OCc2c1cc1n(c2=O)Cc2cc3c(CN(C)C)c(O)ccc3nc2-1 + COC1C(OC(N)=O)C(O)C(Oc2ccc3c(O)c(NC(=O)c4ccc(O)c(CC=C(C)C)c4)c(=O)oc3c2C)OC1(C)C")
97.6
>>> value("C=CCn1c(=O)c2cnc(Nc3ccc(N4CCN(C)CC4)cc3)nc2n1-c1cccc(C(C)(C)O)n1 + COC1C(OC(N)=O)C(O)C(Oc2ccc3c(O)c(NC(=O)c4ccc(O)c(CC=C(C)C)c4)c(=O)oc3c2C)OC1(C)C")
100
>>> value("C=CCn1c(=O)c2cnc(Nc3ccc(N4CCN(C)CC4)cc3)nc2n1-c1cccc(C(C)(C)O)n1 + Cc1cccc(N(C)C(=O)C2C(O)CCN2c2nc(C)cc(C(F)(F)F)c2C#N)c1")
105
>>> value("CC[C@@]1(O)C(=O)OCc2c1cc1n(c2=O)Cc2cc3c(CN(C)C)c(O)ccc3nc2-1 + Nc1ccc(C#CCN(C(=O)Cc2ncc(C(F)(F)F)cc2C(F)(F)F)c2ccc(F)cc2)nn1")
89.4

Just for reference, PubChem BioAssay AID1963832 is where these values come from.
